Sourced from paper PMC10056611

MEASURED_QUANTITY: melting point

1. C=CCC(O)(CC=C)CC[C@@H](C)[C@H]1CCC2C3CC=C4C(C)(C)C(N)CC[C@]4(C)C3CC[C@@]21C (stereo partly drawn) [Compound 5av] ... 235.5 to 237.4 °C
2. CCC(O)(CC)CC[C@@H](C)[C@H]1CCC2C3CC=C4C(C)(C)C(N)CC[C@]4(C)C3CC[C@@]21C (stereo partly drawn) [Compound 5at] ... > 300 °C
3. CCCNCCC[C@@H](C)[C@H]1CCC2C3CC=C4C(C)(C)C(N)CC[C@]4(C)C3CC[C@@]21C (stereo partly drawn) [Compound 5am] ... > 300 °C
4. C[C@H](CCCO)[C@H]1CCC2C3CC=C4C(C)(C)C(N)CC[C@]4(C)C3CC[C@@]21C (stereo partly drawn) [Compound 5aa] ... 163.5 to 166.3 °C
5. C=CCC(O)CC[C@@H](C)[C@H]1CCC2C3CC=C4C(C)(C)C(N)CC[C@]4(C)C3CC[C@@]21C (stereo partly drawn) [Compound 5ar] ... 250.4 to 252.6 °C
6. CNC(=O)CC[C@@H](C)[C@H]1CCC2C3CC=C4C(C)(C)C(N)CC[C@]4(C)C3CC[C@@]21C (stereo partly drawn) [Compound 5al] ... > 300 °C
7. C[C@H](CCC(C)(C)O)[C@H]1CCC2C3CC=C4C(C)(C)C(N)CC[C@]4(C)C3CC[C@@]21C (stereo partly drawn) [Compound 5as] ... 215.2 to 217.6 °C
8. CC(O)CC[C@@H](C)[C@H]1CCC2C3CC=C4C(C)(C)C(N)CC[C@]4(C)C3CC[C@@]21C (stereo partly drawn) [Compound 5an] ... > 300 °C
9. CCCC(O)(CCC)CC[C@@H](C)[C@H]1CCC2C3CC=C4C(C)(C)C(N)CC[C@]4(C)C3CC[C@@]21C (stereo partly drawn) [Compound 5au] ... 242.6 to 244.9 °C
10. C[C@H](CO)[C@H]1CCC2C3CC=C4C(C)(C)C(N)CC[C@]4(C)C3CC[C@@]21C (stereo partly drawn) [Compound 5aw] ... 170.6 to 173.8 °C
11. C[C@H](CCCO)[C@H]1CCC2C3C(N)C=C4C(C)(C)C(N)CC[C@]4(C)C3CC[C@@]21C (stereo partly drawn) [Compound 5aj] ... 178.7 to 180.2 °C
12. C[C@H](CCCO)[C@H]1CCC2C3CC=C4C(C)(C)C(NC(=O)Nc5ccc(Cl)c(C(F)(F)F)c5)CC[C@]4(C)C3CC[C@@]21C (stereo partly drawn) [Compound 5ax] ... 221.1 to 223.7 °C

* * *

test system: non-small cell lung cancer (NSCLC) cell line NCI-H1299; experiment: CCK8 cell viability assay, NCI-H1299; format: cell-based; conditions: Homo sapiens, NCI-H1299 cells, 72 h
pIC50: −log10 of the molar value.
MEASURED_QUANTITY: pIC50

1) C[C@H](COc1ccc(NC(=O)Nc2ccc(Cl)c(C(F)(F)F)c2)cc1)[C@H]1CCC2C3CC=C4C(C)(C)C(N)CC[C@]4(C)C3CC[C@@]21C (stereo partly shown) ... 5.26

* * *

Target: SHP1 (Homo sapiens, UniProt P29350)
Sequence (P29350 whole entry): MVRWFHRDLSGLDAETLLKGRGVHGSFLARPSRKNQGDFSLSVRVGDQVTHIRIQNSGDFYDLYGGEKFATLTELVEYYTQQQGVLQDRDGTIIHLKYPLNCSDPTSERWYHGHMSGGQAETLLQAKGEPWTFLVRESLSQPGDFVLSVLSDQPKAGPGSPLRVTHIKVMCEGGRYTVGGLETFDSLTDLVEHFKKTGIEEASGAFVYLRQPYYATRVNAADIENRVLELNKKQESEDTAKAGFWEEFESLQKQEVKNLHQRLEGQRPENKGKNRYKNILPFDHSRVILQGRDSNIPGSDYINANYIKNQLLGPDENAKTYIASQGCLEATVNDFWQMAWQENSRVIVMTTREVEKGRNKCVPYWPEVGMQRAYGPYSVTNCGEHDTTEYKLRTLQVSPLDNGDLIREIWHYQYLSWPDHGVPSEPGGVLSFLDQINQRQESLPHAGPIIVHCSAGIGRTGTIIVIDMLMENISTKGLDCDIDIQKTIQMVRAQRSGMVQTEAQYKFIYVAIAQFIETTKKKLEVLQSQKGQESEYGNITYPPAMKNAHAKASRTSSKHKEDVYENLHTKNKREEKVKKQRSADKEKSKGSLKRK
Assay: SHP1 enzyme assay (DiFMUP fluorogenic substrate), activation
Settings: DiFMUP assay; mean ± SEM
Experimental: The SHP1-activating effects of the synthetic compounds were examined by the 6,8-difluoro-4-methylumbelliferyl phosphate (DiFMUP) assay. The proteins SHP1 and SHP2, containing a GST-tag, were expressed in E. coli. […] Fluorescence data were collected by the Envision (PerkinElmer, Waltham, MA, USA) plate reader, using excitation and emission wavelengths of 358 and 455 nm, respectively. A sigmoidal dose-response curve was fitted to the data, and the EC50 values were calculated using GraphPad Prism. […]
Cut-off 30 µM on EC50: below means 1 (yes), at or above means 0 (no).

1. C=CCC(O)(CC=C)CC[C@@H](C)[C@H]1CCC2C3CC=C4C(C)(C)C(N)CC[C@]4(C)C3CC[C@@]21C (some centres unmarked) ... 0 (no)
2. CCCC(O)(CCC)CC[C@@H](C)[C@H]1CCC2C3CC=C4C(C)(C)C(N)CC[C@]4(C)C3CC[C@@]21C (some centres unmarked) ... 1 (yes)
3. C[C@H](CCCOc1ccc(NC(=O)Nc2ccc(Cl)c(C(F)(F)F)c2)cc1)[C@H]1CCC2C3CC=C4C(C)(C)C(N)CC[C@]4(C)C3CC[C@@]21C (some centres unmarked) ... 1 (yes)
4. C[C@H](CCCO)[C@H]1CCC2C3C(O)C=C4C(C)(C)C(N)CC[C@]4(C)C3CC[C@@]21C (some centres unmarked) ... 0 (no)
5. C[C@H](CCC(C)(C)O)[C@H]1CCC2C3CC=C4C(C)(C)C(N)CC[C@]4(C)C3CC[C@@]21C (some centres unmarked) ... 1 (yes)
6. CCCC(O)CC[C@@H](C)[C@H]1CCC2C3CC=C4C(C)(C)C(N)CC[C@]4(C)C3CC[C@@]21C (some centres unmarked) ... 0 (no)
7. CCC(O)(CC)CC[C@@H](C)[C@H]1CCC2C3CC=C4C(C)(C)C(N)CC[C@]4(C)C3CC[C@@]21C (some centres unmarked) ... 1 (yes)
8. C[C@H](CCCO)[C@H]1CCC2C3CC=C4C(C)(C)C(N)CC[C@]4(C)C3CC[C@@]21C (some centres unmarked) ... 1 (yes)
9. C[C@H](CCCO)[C@H]1CCC2C3C(=NO)C=C4C(C)(C)C(N)CC[C@]4(C)C3CC[C@@]21C (some centres unmarked) ... 0 (no)
10. C[C@H](CCCO)[C@H]1CCC2C3C(=O)C=C4C(C)(C)C(N)CC[C@]4(C)C3CC[C@@]21C (some centres unmarked) ... 0 (no)
11. C[C@H](CCCO)[C@H]1CCC2C3CC=C4C(C)(C)C(N5CCC5)CC[C@]4(C)C3CC[C@@]21C (some centres unmarked) ... 0 (no)
12. C[C@H](CO)[C@H]1CCC2C3CC=C4C(C)(C)C(N)CC[C@]4(C)C3CC[C@@]21C (some centres unmarked) ... 0 (no)
13. C=CCC(O)CC[C@@H](C)[C@H]1CCC2C3CC=C4C(C)(C)C(N)CC[C@]4(C)C3CC[C@@]21C (some centres unmarked) ... 1 (yes)
14. C[C@H](CCCO)[C@H]1CCC2C3C(N)C=C4C(C)(C)C(N)CC[C@]4(C)C3CC[C@@]21C (some centres unmarked) ... 0 (no)
15. C[C@H](COc1ccc(NC(=O)Nc2ccc(Cl)c(C(F)(F)F)c2)cc1)[C@H]1CCC2C3CC=C4C(C)(C)C(N)CC[C@]4(C)C3CC[C@@]21C (some centres unmarked) ... 1 (yes)
16. C[C@H](CCCO)[C@H]1CCC2C3CC=C4C(C)(C)C(NCCO)CC[C@]4(C)C3CC[C@@]21C (some centres unmarked) ... 0 (no)
17. C[C@H](CCCO)[C@H]1CCC2C3=CC=C4C(C)(C)C(N)CC[C@]4(C)C3CC[C@@]21C (some centres unmarked) ... 1 (yes)
18. CNC(=O)CC[C@@H](C)[C@H]1CCC2C3CC=C4C(C)(C)C(N)CC[C@]4(C)C3CC[C@@]21C (some centres unmarked) ... 0 (no)
19. C[C@H](CCCO)[C@H]1CCC2C3CC=C4C(C)(C)C(NCCCCl)CC[C@]4(C)C3CC[C@@]21C (some centres unmarked) ... 0 (no)
20. CCCNCCC[C@@H](C)[C@H]1CCC2C3CC=C4C(C)(C)C(N)CC[C@]4(C)C3CC[C@@]21C (some centres unmarked) ... 0 (no)
21. CC(C)C(O)CC[C@@H](C)[C@H]1CCC2C3CC=C4C(C)(C)C(N)CC[C@]4(C)C3CC[C@@]21C (some centres unmarked) ... 1 (yes)
22. CCC(O)CC[C@@H](C)[C@H]1CCC2C3CC=C4C(C)(C)C(N)CC[C@]4(C)C3CC[C@@]21C (some centres unmarked) ... 1 (yes)
23. CC(O)CC[C@@H](C)[C@H]1CCC2C3CC=C4C(C)(C)C(N)CC[C@]4(C)C3CC[C@@]21C (some centres unmarked) ... 1 (yes)
24. C[C@H](CCCO)[C@H]1CCC2C3CC=C4C(C)(C)C(NC(=O)Nc5ccc(Cl)c(C(F)(F)F)c5)CC[C@]4(C)C3CC[C@@]21C (some centres unmarked) ... 0 (no)
25. CCCNC1CC[C@@]2(C)C(=CCC3C2CC[C@@]2(C)C3CC[C@@H]2[C@H](C)CCCO)C1(C)C (some centres unmarked) ... 0 (no)

* * *

molecular target: SHP1 (Homo sapiens, UniProt P29350); test: SHP1 enzyme assay (DiFMUP fluorogenic substrate), activation; assay type: biochemical; details: DiFMUP assay; mean ± SEM
Maximum Activation Fold for assorted compounds
MEASURED_QUANTITY: Maximum Activation Fold (fold)

1) C[C@H](CCCO)[C@H]1CCC2C3C(=O)C=C4C(C)(C)C(N)CC[C@]4(C)C3CC[C@@]21C (stereo partly drawn) [Compound 5ag] ... 1.84
2) C[C@H](CCCO)[C@H]1CCC2C3CC=C4C(C)(C)C(N)CC[C@]4(C)C3CC[C@@]21C (stereo partly drawn) [Compound 5aa] ... 6.03
3) C[C@H](CCC(C)(C)O)[C@H]1CCC2C3CC=C4C(C)(C)C(N)CC[C@]4(C)C3CC[C@@]21C (stereo partly drawn) [Compound 5as] ... 5.73
4) CCC(O)(CC)CC[C@@H](C)[C@H]1CCC2C3CC=C4C(C)(C)C(N)CC[C@]4(C)C3CC[C@@]21C (stereo partly drawn) [Compound 5at] ... 6.50
5) CC(C)C(O)CC[C@@H](C)[C@H]1CCC2C3CC=C4C(C)(C)C(N)CC[C@]4(C)C3CC[C@@]21C (stereo partly drawn) [Compound 5aq] ... 6.32
6) CCCC(O)CC[C@@H](C)[C@H]1CCC2C3CC=C4C(C)(C)C(N)CC[C@]4(C)C3CC[C@@]21C (stereo partly drawn) [Compound 5ap] ... 6.65
7) C[C@H](CCCOc1ccc(NC(=O)Nc2ccc(Cl)c(C(F)(F)F)c2)cc1)[C@H]1CCC2C3CC=C4C(C)(C)C(N)CC[C@]4(C)C3CC[C@@]21C (stereo partly drawn) [Compound 5ay] ... 5.54
8) C[C@H](CCCO)[C@H]1CCC2C3C(=NO)C=C4C(C)(C)C(N)CC[C@]4(C)C3CC[C@@]21C (stereo partly drawn) [Compound 5ah] ... 2.13
9) C[C@H](COc1ccc(NC(=O)Nc2ccc(Cl)c(C(F)(F)F)c2)cc1)[C@H]1CCC2C3CC=C4C(C)(C)C(N)CC[C@]4(C)C3CC[C@@]21C (stereo partly drawn) [Compound 5ba] ... 7.63
10) CCC(O)CC[C@@H](C)[C@H]1CCC2C3CC=C4C(C)(C)C(N)CC[C@]4(C)C3CC[C@@]21C (stereo partly drawn) [Compound 5ao] ... 6.59
11) C=CCC(O)CC[C@@H](C)[C@H]1CCC2C3CC=C4C(C)(C)C(N)CC[C@]4(C)C3CC[C@@]21C (stereo partly drawn) [Compound 5ar] ... 6.94
12) C=CCC(O)(CC=C)CC[C@@H](C)[C@H]1CCC2C3CC=C4C(C)(C)C(N)CC[C@]4(C)C3CC[C@@]21C (stereo partly drawn) [Compound 5av] ... 5.90
13) CC(O)CC[C@@H](C)[C@H]1CCC2C3CC=C4C(C)(C)C(N)CC[C@]4(C)C3CC[C@@]21C (stereo partly drawn) [Compound 5an] ... 6.33
14) CNC(=O)CC[C@@H](C)[C@H]1CCC2C3CC=C4C(C)(C)C(N)CC[C@]4(C)C3CC[C@@]21C (stereo partly drawn) [Compound 5al] ... 6.42
15) CCCC(O)(CCC)CC[C@@H](C)[C@H]1CCC2C3CC=C4C(C)(C)C(N)CC[C@]4(C)C3CC[C@@]21C (stereo partly drawn) [Compound 5au] ... 6.42
